System: BT-20
Test: relative cell number vs DMSO control (72 h) (% of DMSO); higher = less growth inhibition (more cells)
Conditions: sgRNA knockout: sgNT, 100 nM
Label scheme for relative cell number: low end (below 80), middle (80 to below 100), high end (100 or more)

[
  {
    "MOLECULE": "O=C(Cc1ccc(-c2ccc(OCCN3CCOCC3)cc2)cn1)NCc1ccccc1",
    "DISCRETE LABEL": "low end"
  },
  {
    "MOLECULE": "CS(=O)(=O)N1CCN(Cc2cc3nc(-c4cccc5[nH]ncc45)nc(N4CCOCC4)c3s2)CC1",
    "DISCRETE LABEL": "middle"
  },
  {
    "MOLECULE": "Cc1ccc(C(=O)Cn2c3c(sc2=N)CCCC3)cc1",
    "DISCRETE LABEL": "middle"
  },
  {
    "MOLECULE": "CC(=O)O[C@H]1C(=O)[C@@]2(C)[C@H]([C@H](OC(=O)c3ccccc3)[C@]3(O)C[C@H](OC(=O)[C@H](O)[C@@H](NC(=O)c4ccccc4)c4ccccc4)C(C)=C1C3(C)C)[C@]1(OC(C)=O)CO[C@@H]1C[C@@H]2O",
    "DISCRETE LABEL": "low end"
  },
  {
    "MOLECULE": "Cc1ccc(Nc2nccc(N(C)c3ccc4c(C)n(C)nc4c3)n2)cc1S(N)(=O)=O",
    "DISCRETE LABEL": "middle"
  },
  {
    "MOLECULE": "CC/C(=C(\\c1ccc(O)cc1)c1ccc(OCCN(C)C)cc1)c1ccccc1 [4-Hydroxytamoxifen]",
    "DISCRETE LABEL": "middle"
  },
  {
    "MOLECULE": "COc1cc2c(cc1-c1c(C)noc1C)ncc1[nH]c(=O)n([C@H](C)c3ccccn3)c12",
    "DISCRETE LABEL": "middle"
  },
  {
    "MOLECULE": "COc1cc2nccc(Oc3ccc(NC(=O)Nc4cc(C)on4)c(Cl)c3)c2cc1OC",
    "DISCRETE LABEL": "low end"
  },
  {
    "MOLECULE": "Cn1c(CCCC(=O)O)nc2cc(N(CCCl)CCCl)ccc21",
    "DISCRETE LABEL": "high end"
  },
  {
    "MOLECULE": "O=c1[nH]cc(F)c(=O)[nH]1",
    "DISCRETE LABEL": "high end"
  },
  {
    "MOLECULE": "OCCn1cc(-c2ccc3c(c2)CC/C3=N\\O)c(-c2ccncc2)n1",
    "DISCRETE LABEL": "high end"
  },
  {
    "MOLECULE": "Fc1ccc(CNc2ncnc3ccc(F)cc23)cc1",
    "DISCRETE LABEL": "middle"
  },
  {
    "MOLECULE": "COC(=O)[C@]12CCC(C)(C)C[C@H]1[C@H]1C(=O)C=C3[C@@]4(C)C=C(C#N)C(=O)C(C)(C)[C@@H]4CC[C@@]3(C)[C@]1(C)CC2",
    "DISCRETE LABEL": "low end"
  },
  {
    "MOLECULE": "C[C@@H](Nc1cc(F)cc(F)c1)c1cc(C(=O)N(C)C)cc2c(=O)cc(N3CCOCC3)oc12",
    "DISCRETE LABEL": "high end"
  },
  {
    "MOLECULE": "O=c1ncccn1[C@@H]1O[C@H](CO)[C@@H](O)[C@H]1O",
    "DISCRETE LABEL": "middle"
  }
]
